Where these numbers come from: the supplement of paper PMC13380429

- System: HepG2
- Protocol details: cell viability relative to DMSO; higher = less toxic
- Measurement parameters: 72 h; 100 nM
Measurement label: cell viability (%)
Value expressed in %; do not type the unit.

Q: Find the measured cell viability of O=C([O-])CN1CCN(CC(=O)[O-])CCN([C@H](CO)[C@H](O)CO)CCN(CC(=O)[O-])CC1.[Gd+3] (racemic) [gadobutrol] with HepG2 as test system.
Ans: 101

Q: Find the measured cell viability of CC[C@H](/C=C/[C@@H](C)[C@H]1CC[C@H]2[C@@H]3CC=C4C[C@@H](O)CC[C@]4(C)[C@H]3CC[C@]12C)C(C)C [Stigmasterol (Stigmasterin)] with HepG2 as test system.
Ans: 92.9

Q: Find the measured cell viability of CC(C)n1c(/C=C/[C@@H](O)C[C@@H](O)CC(=O)O)c(-c2ccc(F)cc2)c2ccccc21 [fluvastatin] with HepG2 as test system.
Ans: 99.2

Q: Find the measured cell viability of O=C(NCc1ccccc1)OCCO [buramate] with HepG2 as test system.
Ans: 104

Q: Find the measured cell viability of CCCN1CCC[C@@H]2Cc3n[nH]cc3C[C@H]21 [quinpirol-(-)] with HepG2 as test system.
Ans: 103

Q: Find the measured cell viability of NC(=O)NC(=O)Cc1ccccc1 [phenacemide] with HepG2 as test system.
Ans: 95.5

Q: Find the measured cell viability of Cc1cccc(CN2CCN(C(c3ccccc3)c3ccc(Cl)cc3)CC2)c1 (stereo not given) [meclizine] with HepG2 as test system.
Ans: 106

Q: Find the measured cell viability of Cc1ccc2c(-c3ccccc3)nc(=O)n(C(C)C)c2c1 [proquazone] with HepG2 as test system.
Ans: 102

Q: Find the measured cell viability of NC(=O)CNCCC(c1ccccc1)c1ccccc1 [N20C] with HepG2 as test system.
Ans: 106

Q: Find the measured cell viability of Cc1ccc(-c2csc3ncnc(SCCC(=O)O)c23)cc1 [TTP-22] with HepG2 as test system.
Ans: 95.6

Q: Find the measured cell viability of O=C(Cc1cccc(OC(F)(F)F)c1)Nc1ccc(CCCCc2nnc(NC(=O)Cc3ccccn3)s2)nn1 [CB-839] with HepG2 as test system.
Ans: 78.1

Q: Find the measured cell viability of "FCc1ccc(OCCOc2ccc(Cl)cc2Cl)c(Cl)n1" with HepG2 as test system.
Ans: 98.9

Q: Find the measured cell viability of O=C(O[C@H]1C[C@H]2CC[C@@H](C1)[N+]21CCCC1)C(O)(c1ccccc1)c1ccccc1 [trospium] with HepG2 as test system.
Ans: 107

Q: Find the measured cell viability of CN(C)NC(=O)CCC(=O)O [daminozide] with HepG2 as test system.
Ans: 102

Q: Find the measured cell viability of N=C(N)NC(=N)Nc1ccccc1 [1-phenylbiguanide] with HepG2 as test system.
Ans: 103

Q: Find the measured cell viability of CCCCCCCC/C=C\CCCCCCCC(=O)NCCc1ccc(O)c(O)c1 [OLDA] with HepG2 as test system.
Ans: 100

Q: Find the measured cell viability of CN1CCOC(c2ccccc2)c2ccccc2C1 (stereo not given) [nefopam] with HepG2 as test system.
Ans: 96.3

Q: Find the measured cell viability of O=C(O)C1=CCCN(CCOC(c2ccc(C(F)(F)F)cc2)c2ccc(C(F)(F)F)cc2)C1 [CI-966] with HepG2 as test system.
Ans: 104

Q: Find the measured cell viability of Oc1c(I)cc(I)c2cccnc12 [iodoquinol] with HepG2 as test system.
Ans: 93.7

Q: Find the measured cell viability of "O=C(N[C@H]1CN2CCC1CC2)c1ccc(Cl)cc1" with HepG2 as test system.
Ans: 93.7
